EXPERIMENTAL_PROTOCOL: Evaluation Test 1: Solubility at 30° C. in ethyl lactate
Assay type: physicochemical
PARTICULARS: in ethyl lactate, stirred 3 hours, HPLC quantification
Exercise: state measured Solubility (g/100 g, 30° C.) for each of the compounds provided.
Write it as a number; the unit g/100 g goes unstated.

[Q] GET /values?readout=Solubility (g/100 g, 30° C.)&item= COCc1cc(C(C)(C)c2ccc(C(C)(c3cc(COC)c(O)c(COC)c3)c3cc(COC)c(O)c(COC)c3)cc2)cc(COC)c1O [Comparative compound (x), reference compound]
[A] 38.7

[Q] // lookup Solubility (g/100 g, 30° C.) for COCc1cc(C(C)(c2cc(COC)c(O)c(COC)c2)c2cc(COC)c(O)c(COC)c2)cc(COC)c1O [(y), reference compound]
[A] 84.0

Numbers sourced from patent US12479784B2.
